# pIC50 per entry
- EXPERIMENTAL TARGET: PTRGER4 (EP4) (Homo sapiens (Human))
- ASSAY PROTOCOL: hEP4 b-arrestin assay (PathHunter HEK 293 PTGER4 b-arrestin cells)
- Assay type: cell-based
- ASSAY SETUP: hEP4 b-arrestin assay (values without asterisk)
Scale: pIC50 equals -log10([C]), with [C] in mol/L.

Look over these answered cases.
molecule="CCOC(=O)OCOC(=O)c1sc(-c2cc(NCCn3c(C#N)cc4c(OC)ccc(F)c43)ncn2)cc1OCC [Example 1046]" readout_type=pIC50 measured=8.30
molecule="COc1ccc(F)c2c1cc(C#N)n2CCNc1cc(-c2ccc3[nH]cnc3c2)ncn1 [Example 984]" readout_type=pIC50 measured=7.55
molecule="CCc1cc(-c2cc(NCCn3c(C#N)cc4c(OC)ccc(F)c43)ncn2)ccc1O [Example 822]" readout_type=pIC50 measured=8.30
molecule="COc1ccc(F)c2c1cc(C#N)n2CCNc1cc(-c2ccc3c(c2)CCNC3=O)ncn1 [Example 990]" readout_type=pIC50 measured=7.72

Inquiry: # pIC50 lookup, item N#Cc1c(F)c2ccccc2n1CCNc1cc(-c2cc(C(F)(F)F)c(C(=O)O)s2)ncn1 [Example 840]
Reply text: 7.33

Inquiry: # pIC50 lookup, item COC(=O)c1ccc2cc(-c3cc(NCCn4c(C#N)cc5c(OC)ccc(F)c54)ncn3)[nH]c2c1 [Example 959]
Reply text: 6.86

Inquiry: # pIC50 lookup, item CCOc1cc(-c2cc(NCCn3c(C)cc4c(OC)ccc(F)c43)ncn2)sc1NC(=O)CC [Example 1073]
Reply text: 7.85

Inquiry: # pIC50 lookup, item CCOc1cc(-c2cc(NCCn3c(C#N)cc4c(Cl)cc(F)c(F)c43)ncn2)ccc1NCC(=O)O [Example 916]
Reply text: 7.74

Inquiry: # pIC50 lookup, item COc1ccc(F)c2c1cc(C#N)n2CCNc1cc(-c2ccc(-c3cnn[nH]3)cc2)ncn1 [Example 923]
Reply text: 7.38

Inquiry: # pIC50 lookup, item CCOc1cc(-c2cc(NCCn3c(C#N)cc4c(C)c(F)c(F)cc43)ncn2)sc1C(=O)O [Example 890]
Reply text: 7.64

Inquiry: # pIC50 lookup, item COc1ccc(F)c2c1cc(C#N)n2CCNc1cc(-c2ccnc(N3CCOCC3)c2)ncn1 [Example 1003]
Reply text: 6.88

Inquiry: # pIC50 lookup, item COc1ccc(F)c2c1cc(C#N)n2CCNc1cc(-c2cnc3c(ccn3C)c2)ncn1 [Example 980]
Reply text: 7.92

Inquiry: # pIC50 lookup, item COc1ccc(F)c2c1cc(C)n2CCNc1cc(-c2ccc(O)c(OC(F)(F)F)c2)ncn1 [Example 874]
Reply text: 7.72

Inquiry: # pIC50 lookup, item COc1ccc(F)c2c1cc(C#N)n2CCNc1cc(-c2ccc(C(=O)O)c(OCC(C)C)c2)ncn1 [Example 949]
Reply text: 7.85

Inquiry: # pIC50 lookup, item COc1ccc(F)c2c1cc(C#N)n2CCNc1cc(-c2ccnc(C3CC3)c2)ncn1 [Example 986]
Reply text: 7.18

Inquiry: # pIC50 lookup, item CCOc1cc(-c2cc(NCCn3c(C)cc4c(OC)ccc(F)c43)ncn2)ccc1OC(C)C(=O)O (racemic) [Example 843]
Reply text: 6.95

* * *

# pIC50 per entry
- EXPERIMENTAL TARGET: PTGER2 (EP2) (Homo sapiens (Human), UniProt P43116)
- Sequence (P43116 whole entry): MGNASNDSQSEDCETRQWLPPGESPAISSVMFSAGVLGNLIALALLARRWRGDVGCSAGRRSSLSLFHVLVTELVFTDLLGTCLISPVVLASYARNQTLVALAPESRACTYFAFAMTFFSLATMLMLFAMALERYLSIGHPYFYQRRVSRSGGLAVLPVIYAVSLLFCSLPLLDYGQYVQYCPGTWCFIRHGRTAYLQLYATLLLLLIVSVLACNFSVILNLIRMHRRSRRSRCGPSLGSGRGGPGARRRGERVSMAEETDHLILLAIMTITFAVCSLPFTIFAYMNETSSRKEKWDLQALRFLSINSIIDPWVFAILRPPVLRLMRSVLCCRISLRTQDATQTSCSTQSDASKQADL
- ASSAY PROTOCOL: hEP2 b-arrestin assay (PathHunter HEK 293 PTGER2 b-arrestin cells)
- Type: cell-based
- ASSAY SETUP: antagonistic activity on hEP2; mean where measured multiple times
- Method: The assay is using the PathHunter™ HEK 293 PTGER2 and PTGER4 b-arrestin cell lines from DiscoverX. The system is based on the Enzyme Fragment Complementation Technology. […] Twelve μl of reagent are transferred to the assay plate and incubate for 1 hour at room temperature in the dark. Luminescence counts are read on a BMG Fluostar Optima reader according to manufacturer's instructions. […] (each concentration is measured in duplicate)
Scale: pIC50 equals -log10([C]), with [C] in mol/L.

Inquiry: # pIC50 lookup, item COc1ccc(F)c2c1cc(C)n2CCNc1cc(-c2ccc(CO)c(F)c2)ncn1 [compound 28]
Reply text: 7.77

Inquiry: # pIC50 lookup, item CCCc1cc(-c2cc(NCCn3c(C)cc4c(OC)c(F)cc(F)c43)ncn2)ccc1C(=O)O [compound 373]
Reply text: 7.10

Inquiry: # pIC50 lookup, item CSc1cc(-c2cc(NCCn3c(C)cc4c(C)ccc(Cl)c43)ncn2)ccc1C(=O)O [compound 217]
Reply text: 7.60

Inquiry: # pIC50 lookup, item Cc1ccc(F)c2c1cc(C)n2CCNc1cc(-c2ccc(-c3ncc[nH]3)cc2)ncn1 [compound 71]
Reply text: 7.07

Inquiry: # pIC50 lookup, item COc1cc(-c2cc(NCCn3c(C)cc4c(C)cccc43)ncn2)ccc1C(=O)O [compound 35]
Reply text: 7.82

Inquiry: # pIC50 lookup, item CCOc1cc(-c2cc(NCCn3c(C)cc4c(OC)ccc(F)c43)ncn2)cc(C)c1C(=O)O [compound 366]
Reply text: 7.66

Inquiry: # pIC50 lookup, item COc1c(-c2cc(NCCn3c(C)cc4c(OC)ccc(F)c43)ncn2)csc1C(=O)O [compound 215]
Reply text: 6.86

Inquiry: # pIC50 lookup, item CCc1cc(-c2cc(NCCn3c(C)cc4c(OC)cccc43)ncn2)cc(Cl)c1C(=O)O [compound 160]
Reply text: 7.32

Inquiry: # pIC50 lookup, item CCOc1cc(-c2cc(NCCn3c(C)cc4c(C)cc(F)c(F)c43)ncn2)sc1C(=O)O [compound 294]
Reply text: 8.10

Inquiry: # pIC50 lookup, item Cc1ccc(F)c2c1cc(C)n2CCNc1cc(-c2ccc(C(=O)O)cc2)ncn1 [compound 15]
Reply text: 7.21

Inquiry: # pIC50 lookup, item CCCc1cc(-c2cc(NCCn3c(C)cc4c(F)ccc(F)c43)ncn2)ccc1C(=O)O [compound 144]
Reply text: 8.52

Inquiry: # pIC50 lookup, item CCNc1cc(-c2cc(NCCn3c(C)cc4c(OC)cccc43)ncn2)cc(Cl)c1C(=O)O [compound 362]
Reply text: 8.52

Inquiry: # pIC50 lookup, item CCc1cc(-c2cc(NCCn3c(C)cc4cc(OC)cc(F)c43)ncn2)sc1C(=O)O [compound 231]
Reply text: 6.73

Inquiry: # pIC50 lookup, item Cc1ccc(C)c2c1cc(C)n2CCNc1cc(-c2ccc(C(=O)O)c(CC(C)C)c2)ncn1 [compound 328]
Reply text: 7.21

Inquiry: # pIC50 lookup, item COc1cc(F)cc2c1cc(C)n2CCNc1cc(-c2ccc(-c3ccns3)cc2)ncn1 [compound 205]
Reply text: 7.36

Inquiry: # pIC50 lookup, item Cc1cc2c(F)ccc(F)c2n1CCNc1cc(-c2ccc(C(=O)O)c(CCC(C)C)c2)ncn1 [compound 367]
Reply text: 7.85

Inquiry: # pIC50 lookup, item CCOc1cc(-c2cc(NCCn3c(C)cc4c(C)cc(F)cc43)ncn2)sc1C(=O)O [compound 229]
Reply text: 8.70

Inquiry: # pIC50 lookup, item COc1cccc2c1cc(C)n2CCNc1cc(-c2ccc(-c3ccn[nH]3)cc2)ncn1 [compound 75]
Reply text: 8.15

Inquiry: # pIC50 lookup, item CCc1cc(-c2cc(NCCn3c(C)cc4cc(F)cc(F)c43)ncn2)ccc1C(=O)O [compound 122]
Reply text: 8.05

* * *

- EXPERIMENTAL TARGET: PTGER2 (EP2) (Homo sapiens (Human))
- ASSAY PROTOCOL: hEP2 b-arrestin assay (PathHunter HEK 293 PTGER2 b-arrestin cells)
- Assay type: cell-based
- ASSAY SETUP: hEP2 b-arrestin assay (values without asterisk)
READOUT TYPE: pIC50
Scale: pIC50 equals -log10([C]), with [C] in mol/L.

smiles_notation=CCOc1cc(-c2cc(NCCn3c(C#N)cc4c(OC)ccc(F)c43)ncn2)sc1CC(=O)O experimental_target="PTGER2 (EP2) (Homo sapiens (Human))" measured=6.63
smiles_notation=CCOc1cc(-c2cc(NCCn3c(C#N)cc4c(OC)ccc(F)c43)ncn2)ccc1NCC(=O)O experimental_target="PTGER2 (EP2) (Homo sapiens (Human))" measured=8.30
smiles_notation=CCOc1cc(-c2cc(NCCn3c(C#N)cc4c(OC)ccc(F)c43)ncn2)ccc1C(=O)C(=O)O experimental_target="PTGER2 (EP2) (Homo sapiens (Human))" measured=7.80

Inquiry: # pIC50 lookup, item CNc1cc(-c2cc(NCCn3c(C#N)cc4c(OC)ccc(F)c43)ncn2)ccc1C(=O)O
Reply text: 8.52

* * *

# IC50 per entry
- EXPERIMENTAL TARGET: PTRGER4 (EP4) (Homo sapiens (Human), UniProt P35408)
- Sequence (P35408 whole entry, looked up): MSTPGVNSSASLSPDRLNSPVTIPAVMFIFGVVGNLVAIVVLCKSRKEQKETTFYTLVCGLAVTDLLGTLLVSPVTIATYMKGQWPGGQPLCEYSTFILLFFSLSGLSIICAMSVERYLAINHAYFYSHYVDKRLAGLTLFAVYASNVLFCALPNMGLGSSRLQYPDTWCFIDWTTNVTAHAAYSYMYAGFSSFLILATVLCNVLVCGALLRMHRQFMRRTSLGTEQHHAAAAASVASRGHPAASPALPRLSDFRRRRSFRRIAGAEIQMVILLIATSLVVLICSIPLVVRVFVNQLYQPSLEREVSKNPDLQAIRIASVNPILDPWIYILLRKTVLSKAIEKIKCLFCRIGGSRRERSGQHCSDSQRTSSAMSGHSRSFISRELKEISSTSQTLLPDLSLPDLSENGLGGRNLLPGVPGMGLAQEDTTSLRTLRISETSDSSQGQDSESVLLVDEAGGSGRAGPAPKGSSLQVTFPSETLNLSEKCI
- ASSAY PROTOCOL: hEP4 b-arrestin assay (PathHunter HEK 293 PTGER4 b-arrestin cells)
- Format: cell-based
- ASSAY SETUP: hEP4 b-arrestin assay (values without asterisk)
Enter your answer as a number in nM; do not include the unit.

Look over these answered cases.
smiles_notation=CCOc1cc(-c2cc(NCCn3c(C#N)c(F)c4ccccc43)ncn2)sc1C(=O)O experimental_target="PTRGER4 (EP4) (Homo sapiens (Human), UniProt P35408)" readout_type=IC50 measured=32
smiles_notation=CCOc1cc(-c2cc(NCCn3c(C)cc4c(Cl)cc(Cl)c(F)c43)ncn2)sc1C(=O)O experimental_target="PTRGER4 (EP4) (Homo sapiens (Human), UniProt P35408)" readout_type=IC50 measured=7
smiles_notation=COc1ccc(F)c2c1cc(C#N)n2CCNc1cc(-c2ccc(B(O)O)cc2)ncn1 experimental_target="PTRGER4 (EP4) (Homo sapiens (Human), UniProt P35408)" readout_type=IC50 measured=62
smiles_notation=COc1cc(-c2cc(NCCn3c(C)cc4c(OC)ccc(F)c43)ncn2)ccc1CC(=O)O experimental_target="PTRGER4 (EP4) (Homo sapiens (Human), UniProt P35408)" readout_type=IC50 measured=125
smiles_notation=N#Cc1cc2cccc(F)c2n1CCNc1cc(-c2cc(C(F)(F)F)c(C(=O)O)s2)ncn1 experimental_target="PTRGER4 (EP4) (Homo sapiens (Human), UniProt P35408)" readout_type=IC50 measured=60

Inquiry: Query IC50 on PTRGER4 (EP4) (Homo sapiens (Human), UniProt P35408) for COc1ccc(F)c2c1cc(C#N)n2CCNc1cc(-c2ccc3[nH]c(=O)oc3c2)ncn1
Reply text: 18

Inquiry: Query IC50 on PTRGER4 (EP4) (Homo sapiens (Human), UniProt P35408) for Cc1c(F)c(F)cc2c1cc(C#N)n2CCNc1cc(-c2cc(C(F)(F)F)c(C(=O)O)s2)ncn1
Reply text: 212

Inquiry: Query IC50 on PTRGER4 (EP4) (Homo sapiens (Human), UniProt P35408) for COc1ccc(F)c2c1cc(C#N)n2CCNc1cc(-c2ccc3nn[nH]c3c2)ncn1
Reply text: 14

Inquiry: Query IC50 on PTRGER4 (EP4) (Homo sapiens (Human), UniProt P35408) for CCOc1cc(-c2cc(NCCn3c(C#N)cc4c(C)cc(F)c(F)c43)ncn2)ccc1C(=O)O
Reply text: 37

Inquiry: Query IC50 on PTRGER4 (EP4) (Homo sapiens (Human), UniProt P35408) for CCOc1cc(-c2cc(NCCn3c(C#N)cc4c(OC)ccc(F)c43)ncn2)ccc1O
Reply text: 16

Reference source: patent US12011444B2
